# tgt: T1, interleukin 18 binding protein (IL-18BP) (UniProt O95998 31-194)
# T1 sequence (looked up): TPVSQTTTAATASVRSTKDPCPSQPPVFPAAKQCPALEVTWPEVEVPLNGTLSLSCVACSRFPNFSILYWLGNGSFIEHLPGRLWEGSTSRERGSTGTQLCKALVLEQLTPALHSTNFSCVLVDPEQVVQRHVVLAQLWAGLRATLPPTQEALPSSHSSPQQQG
# test_summary: cell-based or functional assay; note: unit not given here
observable: HEK-Blue activity, +100 nM BP, DF-1,000,000

{"binder": "IL-18 variant D23G, K53Y, S55Y (ligand) YFGKLESKLSVIRNLNDQVLFIGQGNRPLFEDMTDSDMRDNAPRTIFIISMYYDYQPRGMAVTISVKSEKISTLSSENKIISFKEMNPPDNIKDTKSDIIFFQRSVPGHDNKMQFESSSYEGYFLASEKERDLFKLILKKEDELGDRSIMFTVQNED", "result_value": 0.1}
{"binder": "IL-18 variant T34S, S36Y, D37N, D40E, N41Q, K53Y, S55I (ligand) YFGKLESKLSVIRNLNDQVLFIDQGNRPLFEDMSDYNMREQAPRTIFIISMYYDIQPRGMAVTISVKSEKISTLSSENKIISFKEMNPPDNIKDTKSDIIFFQRSVPGHDNKMQFESSSYEGYFLASEKERDLFKLILKKEDELGDRSIMFTVQNED", "result_value": 0.12}
{"binder": "IL-18 variant K53T, S55G, P107A, H109Q (ligand) YFGKLESKLSVIRNLNDQVLFIDQGNRPLFEDMTDSDMRDNAPRTIFIISMYTDGQPRGMAVTISVKSEKISTLSSENKIISFKEMNPPDNIKDTKSDIIFFQRSVAGQDNKMQFESSSYEGYFLASEKERDLFKLILKKEDELGDRSIMFTVQNED", "result_value": 0.12}
{"binder": "IL-18 variant S7Y, K53H, S55M (ligand) YFGKLEYKLSVIRNLNDQVLFIDQGNRPLFEDMTDSDMRDNAPRTIFIISMYHDMQPRGMAVTISVKSEKISTLSSENKIISFKEMNPPDNIKDTKSDIIFFQRSVPGHDNKMQFESSSYEGYFLASEKERDLFKLILKKEDELGDRSIMFTVQNED", "result_value": 0.18}
{"binder": "IL-18 variant K53G, S55V, R104Y, H109N (ligand) YFGKLESKLSVIRNLNDQVLFIDQGNRPLFEDMTDSDMRDNAPRTIFIISMYGDVQPRGMAVTISVKSEKISTLSSENKIISFKEMNPPDNIKDTKSDIIFFQYSVPGNDNKMQFESSSYEGYFLASEKERDLFKLILKKEDELGDRSIMFTVQNED", "result_value": 0.1}
{"binder": "IL-18 variant S36Q, D40T, K53P, S55L (ligand) YFGKLESKLSVIRNLNDQVLFIDQGNRPLFEDMTDQDMRTNAPRTIFIISMYPDLQPRGMAVTISVKSEKISTLSSENKIISFKEMNPPDNIKDTKSDIIFFQRSVPGHDNKMQFESSSYEGYFLASEKERDLFKLILKKEDELGDRSIMFTVQNED", "result_value": 0.09}
{"binder": "IL-18 variant K53H, S55Y, Q56H (ligand) YFGKLESKLSVIRNLNDQVLFIDQGNRPLFEDMTDSDMRDNAPRTIFIISMYHDYHPRGMAVTISVKSEKISTLSSENKIISFKEMNPPDNIKDTKSDIIFFQRSVPGHDNKMQFESSSYEGYFLASEKERDLFKLILKKEDELGDRSIMFTVQNED", "result_value": 0.09}
